// pKa lookup, one value per entry
# Experiment description: pKa of metal extractant by neutralization titration
# Format: physicochemical
# Run conditions: read-out: pKa

Compound: CCCCC(CC)COP(=O)(O)CCP(=O)(O)OCC(CC)CCCC (centres unmarked) [E-5]
pKa: 0.9

Compound: CCCCC(CC)COP(=O)(O)CCCP(=O)(O)OCC(CC)CCCC (centres unmarked) [E-1]
pKa: 1.1

Compound: CCCCC(CC)CC(CC(CC)CCCC)(C(=O)O)C(=O)O (centres unmarked) [E-4]
pKa: 6.5

Compound: CCCCCCCCOP(=S)(S)CP(=S)(S)OCCCCCCCC (centres unmarked) [E-6]
pKa: 0.3

Compound: CCCCC(CC)COP(=O)(O)CC(CC)CCCC (centres unmarked) [PC-88A, reference compound]
pKa: 4.6

Compound: CCCCC(CC)COP(=O)(O)CP(=O)(OCC)OCC(CC)CCCC (centres unmarked) [E-3]
pKa: 2.1

Compound: CCCCC(CC)COP(=O)(O)C(C)(O)P(=O)(O)OCC(CC)CCCC (centres unmarked) [E-8]
pKa: 1.1

Compound: CCCCC(CC)COP(=O)(O)CP(=O)(O)OCC(CC)CCCC (centres unmarked) [E-2]
pKa: 0.8

FYI, the data here is from patent US20250201957A1.
